subject_of_test: human leukocyte Cathepsin G (Homo sapiens)
Construct: human leukocyte Cathepsin G (100 ng protein); from tissue; host or cells: human leukocytes
Sequence (P08311 21-244): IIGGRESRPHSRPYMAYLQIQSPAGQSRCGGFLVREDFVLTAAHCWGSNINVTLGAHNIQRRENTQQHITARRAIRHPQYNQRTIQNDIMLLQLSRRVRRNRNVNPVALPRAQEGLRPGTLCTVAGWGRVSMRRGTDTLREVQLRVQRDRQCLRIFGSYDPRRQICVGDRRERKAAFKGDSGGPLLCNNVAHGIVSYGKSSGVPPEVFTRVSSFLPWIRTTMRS
procedure_details: Cathepsin G inhibition, fluorogenic substrate, 96 well assay
Assay type: biochemical
measurement_conditions: human leukocyte cathepsin G 100 ng, 37° C., 60 min, pH 6.6; read-out: Amount for 50% inhibition (converted)
quantity_name: IC50 (nM)
Numbers only here, please. The scale is nM.

Solved entries:
Asked: Given the entry O=S(=O)(O)O[C@H]1[C@H](OS(=O)(=O)O)[C@@H](N(CCCCCCCCCCN([C@H]2C=C[C@@H](OS(=O)(=O)O)[C@@H](OS(=O)(=O)O)[C@@H]2OS(=O)(=O)O)[C@H]2C=C[C@@H](OS(=O)(=O)O)[C@@H](OS(=O)(=O)O)[C@@H]2OS(=O)(=O)O)[C@H]2C=C[C@@H](OS(=O)(=O)O)[C@@H](OS(=O)(=O)O)[C@@H]2OS(=O)(=O)O)C=C[C@H]1OS(=O)(=O)O [Compound 4c] , report its measured IC50.
Given back: 158

Asked: Given the entry O=S(=O)(O)OC1C(OS(=O)(=O)O)C(OS(=O)(=O)O)C(N(CCCCCCCCCCN(C2C(OS(=O)(=O)O)C(OS(=O)(=O)O)C(OS(=O)(=O)O)C(OS(=O)(=O)O)C2OS(=O)(=O)O)C2C(OS(=O)(=O)O)C(OS(=O)(=O)O)C(OS(=O)(=O)O)C(OS(=O)(=O)O)C2OS(=O)(=O)O)C2C(OS(=O)(=O)O)C(OS(=O)(=O)O)C(OS(=O)(=O)O)C(OS(=O)(=O)O)C2OS(=O)(=O)O)C(OS(=O)(=O)O)C1OS(=O)(=O)O (centres unmarked) [Compound 5c] , report its measured IC50.
Given back: 198

Asked: Given the entry O=S(=O)(O)O[C@H]1[C@H](OS(=O)(=O)O)[C@@H](N(CCN([C@H]2C=C[C@@H](OS(=O)(=O)O)[C@@H](OS(=O)(=O)O)[C@@H]2OS(=O)(=O)O)[C@H]2C=C[C@@H](OS(=O)(=O)O)[C@@H](OS(=O)(=O)O)[C@@H]2OS(=O)(=O)O)[C@H]2C=C[C@@H](OS(=O)(=O)O)[C@@H](OS(=O)(=O)O)[C@@H]2OS(=O)(=O)O)C=C[C@H]1OS(=O)(=O)O [Compound 4f] , report its measured IC50.
Given back: 189

Asked: Given the entry O=S(=O)(O)O[C@H]1[C@H](OS(=O)(=O)O)[C@@H](N(CCCCCCCN([C@H]2C=C[C@@H](OS(=O)(=O)O)[C@@H](OS(=O)(=O)O)[C@@H]2OS(=O)(=O)O)[C@H]2C=C[C@@H](OS(=O)(=O)O)[C@@H](OS(=O)(=O)O)[C@@H]2OS(=O)(=O)O)[C@H]2C=C[C@@H](OS(=O)(=O)O)[C@@H](OS(=O)(=O)O)[C@@H]2OS(=O)(=O)O)C=C[C@H]1OS(=O)(=O)O [Compound 4h] , report its measured IC50.
Given back: 318

Asked: Given the entry O=S(=O)(O)O[C@H]1[C@H](OS(=O)(=O)O)[C@@H](N(CCCCCN([C@H]2C=C[C@@H](OS(=O)(=O)O)[C@@H](OS(=O)(=O)O)[C@@H]2OS(=O)(=O)O)[C@H]2C=C[C@@H](OS(=O)(=O)O)[C@@H](OS(=O)(=O)O)[C@@H]2OS(=O)(=O)O)[C@H]2C=C[C@@H](OS(=O)(=O)O)[C@@H](OS(=O)(=O)O)[C@@H]2OS(=O)(=O)O)C=C[C@H]1OS(=O)(=O)O [Compound 4k] , report its measured IC50.
Given back: 133

Asked: Given the entry O=S(=O)(O)O[C@H]1[C@H](OS(=O)(=O)O)[C@@H](N(CCCN([C@H]2C=C[C@@H](OS(=O)(=O)O)[C@@H](OS(=O)(=O)O)[C@@H]2OS(=O)(=O)O)[C@H]2C=C[C@@H](OS(=O)(=O)O)[C@@H](OS(=O)(=O)O)[C@@H]2OS(=O)(=O)O)[C@H]2C=C[C@@H](OS(=O)(=O)O)[C@@H](OS(=O)(=O)O)[C@@H]2OS(=O)(=O)O)C=C[C@H]1OS(=O)(=O)O [Compound 4a] , report its measured IC50.
Given back: 162

Asked: Given the entry O=S(=O)(O)O[C@H]1[C@H](OS(=O)(=O)O)[C@@H](N(CCCCN([C@H]2C=C[C@@H](OS(=O)(=O)O)[C@@H](OS(=O)(=O)O)[C@@H]2OS(=O)(=O)O)[C@H]2C=C[C@@H](OS(=O)(=O)O)[C@@H](OS(=O)(=O)O)[C@@H]2OS(=O)(=O)O)[C@H]2C=C[C@@H](OS(=O)(=O)O)[C@@H](OS(=O)(=O)O)[C@@H]2OS(=O)(=O)O)C=C[C@H]1OS(=O)(=O)O [Compound 4g] , report its measured IC50.
Given back: 128

Asked: Given the entry O=S(=O)(O)OC(CN([C@H]1C=C[C@@H](OS(=O)(=O)O)[C@@H](OS(=O)(=O)O)[C@@H]1OS(=O)(=O)O)[C@H]1C=C[C@@H](OS(=O)(=O)O)[C@@H](OS(=O)(=O)O)[C@@H]1OS(=O)(=O)O)CN([C@H]1C=C[C@@H](OS(=O)(=O)O)[C@@H](OS(=O)(=O)O)[C@@H]1OS(=O)(=O)O)[C@H]1C=C[C@@H](OS(=O)(=O)O)[C@@H](OS(=O)(=O)O)[C@@H]1OS(=O)(=O)O [Compound 4l] , report its measured IC50.
Given back: 292

Continuing:
Asked: Given the entry O=S(=O)(O)OC1C(OS(=O)(=O)O)C(OS(=O)(=O)O)C(N(CCCCCCN(C2C(OS(=O)(=O)O)C(OS(=O)(=O)O)C(OS(=O)(=O)O)C(OS(=O)(=O)O)C2OS(=O)(=O)O)C2C(OS(=O)(=O)O)C(OS(=O)(=O)O)C(OS(=O)(=O)O)C(OS(=O)(=O)O)C2OS(=O)(=O)O)C2C(OS(=O)(=O)O)C(OS(=O)(=O)O)C(OS(=O)(=O)O)C(OS(=O)(=O)O)C2OS(=O)(=O)O)C(OS(=O)(=O)O)C1OS(=O)(=O)O (centres unmarked) [Compound 5b] , report its measured IC50.
Given back: 304

Asked: Given the entry O=S(=O)(O)O[C@H]1[C@H](OS(=O)(=O)O)[C@@H](N(CCCCCCCCCN([C@H]2C=C[C@@H](OS(=O)(=O)O)[C@@H](OS(=O)(=O)O)[C@@H]2OS(=O)(=O)O)[C@H]2C=C[C@@H](OS(=O)(=O)O)[C@@H](OS(=O)(=O)O)[C@@H]2OS(=O)(=O)O)[C@H]2C=C[C@@H](OS(=O)(=O)O)[C@@H](OS(=O)(=O)O)[C@@H]2OS(=O)(=O)O)C=C[C@H]1OS(=O)(=O)O [Compound 4j] , report its measured IC50.
Given back: 91.9

Asked: Given the entry O=S(=O)(O)O[C@H]1[C@H](OS(=O)(=O)O)[C@@H](N(CCCCCCCCN([C@H]2C=C[C@@H](OS(=O)(=O)O)[C@@H](OS(=O)(=O)O)[C@@H]2OS(=O)(=O)O)[C@H]2C=C[C@@H](OS(=O)(=O)O)[C@@H](OS(=O)(=O)O)[C@@H]2OS(=O)(=O)O)[C@H]2C=C[C@@H](OS(=O)(=O)O)[C@@H](OS(=O)(=O)O)[C@@H]2OS(=O)(=O)O)C=C[C@H]1OS(=O)(=O)O [Compound 4i] , report its measured IC50.
Given back: 136
